Measured values drawn from ChEMBL document CHEMBL2439971 for this set.

tested on: OVCAR-4; test: Cytotoxicity against human OVCAR4 cells at 10 uM after 48 hrs by sulforhodamine B assay relative to control; assay type: functional
outcome measure: Activity (%)
Just the number in %, nothing appended.

Form field Activity, entry CCCCNCC(=O)Nc1ccc2c(c1)C(=O)c1cc(NC(=O)CNCCCC)ccc1-2 : -29.46

Form field Activity, entry CN1CCN(CCC(=O)Nc2ccc3c(c2)C(=O)c2cc(NC(=O)CCN4CCN(C)CC4)ccc2-3)CC1 : 99.91

Form field Activity, entry CCNCCC(=O)Nc1ccc2c(c1)C(=O)c1cc(NC(=O)CCNCC)ccc1-2 : 105.01

Form field Activity, entry CN1CCN(CC(=O)Nc2ccc3c(c2)C(=O)c2cc(NC(=O)CN4CCN(C)CC4)ccc2-3)CC1 : 111.66

###

tested on: HT-29; experiment: Cytotoxicity against human HT-29 cells at 10 uM after 48 hrs by sulforhodamine B assay relative to control; assay type: functional
Use T when the recorded Activity is no lower than 50%; use F when it is lower.

API: above_or_equal(metric=Activity, cutoff=50%) for item O=C(CCN1CCOCC1)Nc1ccc2c(c1)C(=O)c1cc(NC(=O)CCN3CCOCC3)ccc1-2
T

API: above_or_equal(metric=Activity, cutoff=50%) for item CCSCCC(=O)Nc1ccc2c(c1)C(=O)c1cc(NC(=O)CCSCC)ccc1-2
T

API: above_or_equal(metric=Activity, cutoff=50%) for item CCNCCC(=O)Nc1ccc2c(c1)C(=O)c1cc(NC(=O)CCNCC)ccc1-2
T

API: above_or_equal(metric=Activity, cutoff=50%) for item CN1CCN(CCC(=O)Nc2ccc3c(c2)C(=O)c2cc(NC(=O)CCN4CCN(C)CC4)ccc2-3)CC1
T

API: above_or_equal(metric=Activity, cutoff=50%) for item CCCSCC(=O)Nc1ccc2c(c1)C(=O)c1cc(NC(=O)CSCCC)ccc1-2
T

API: above_or_equal(metric=Activity, cutoff=50%) for item CN1CCN(CC(=O)Nc2ccc3c(c2)C(=O)c2cc(NC(=O)CN4CCN(C)CC4)ccc2-3)CC1
T

API: above_or_equal(metric=Activity, cutoff=50%) for item CCCCNCC(=O)Nc1ccc2c(c1)C(=O)c1cc(NC(=O)CNCCCC)ccc1-2
F

API: above_or_equal(metric=Activity, cutoff=50%) for item CCCNCC(=O)Nc1ccc2c(c1)C(=O)c1cc(NC(=O)CNCCC)ccc1-2
F

API: above_or_equal(metric=Activity, cutoff=50%) for item O=C(CN1CCCC1)Nc1ccc2c(c1)C(=O)c1cc(NC(=O)CN3CCCC3)ccc1-2
F

###

Assign Activity to each entry below.
system: IGROV-1; test: Cytotoxicity against human IGROV1 cells at 10 uM after 48 hrs by sulforhodamine B assay relative to control; assay type: functional
Just the number in %, nothing appended.

Form field Activity, entry CCNCCC(=O)Nc1ccc2c(c1)C(=O)c1cc(NC(=O)CCNCC)ccc1-2 : 108.06

Form field Activity, entry CN1CCN(CCC(=O)Nc2ccc3c(c2)C(=O)c2cc(NC(=O)CCN4CCN(C)CC4)ccc2-3)CC1 : 102.45

Form field Activity, entry CCCSCC(=O)Nc1ccc2c(c1)C(=O)c1cc(NC(=O)CSCCC)ccc1-2 : 103.61

Form field Activity, entry CN1CCN(CC(=O)Nc2ccc3c(c2)C(=O)c2cc(NC(=O)CN4CCN(C)CC4)ccc2-3)CC1 : 110.15

Form field Activity, entry CCNCC(=O)Nc1ccc2c(c1)C(=O)c1cc(NC(=O)CNCC)ccc1-2 : 97.57

Form field Activity, entry CCSCCC(=O)Nc1ccc2c(c1)C(=O)c1cc(NC(=O)CCSCC)ccc1-2 : 122.92

Form field Activity, entry O=C(CCN1CCOCC1)Nc1ccc2c(c1)C(=O)c1cc(NC(=O)CCN3CCOCC3)ccc1-2 : 95.95

Form field Activity, entry CCCCNCC(=O)Nc1ccc2c(c1)C(=O)c1cc(NC(=O)CNCCCC)ccc1-2 : 46.91

Form field Activity, entry O=C(CN1CCCC1)Nc1ccc2c(c1)C(=O)c1cc(NC(=O)CN3CCCC3)ccc1-2 : 86.73

Form field Activity, entry CCCNCC(=O)Nc1ccc2c(c1)C(=O)c1cc(NC(=O)CNCCC)ccc1-2 : 67.45
